Origin of measurements: patent US20250205259A1

Measured On: CTX-M-14 (Escherichia coli)
Assay Protocol: Inhibitory activity on SBL, fluorescent substrate FC-5
Type: biochemical
Run Parameters: read-out: Inhibitory activity on SBL CTX-M-14 (IC50 class)
Property Measured: IC50

• O=C(O)c1c(Cn2ccc3cncnc32)ccc2c1OB(O)CC2 = < 0.01 µM
• N[C@H]1CC(=O)N(Cc2ccc3c(c2C(=O)O)OB(O)CC3)C1 = 0.01 to 1 µM
• Nc1ccc(-c2cn(Cc3ccc4c(c3C(=O)O)OB(O)CC4)nn2)cc1 = < 0.01 µM
• N#Cc1ccn(Cc2ccc3c(c2C(=O)O)OB(O)CC3)n1 = 0.01 to 1 µM
• Nc1cnn(Cc2ccc3c(c2C(=O)O)OB(O)CC3)c1 = < 0.01 µM
• O=C(O)c1c(Cn2cc(C(F)(F)F)cn2)ccc2c1OB(O)CC2 = < 0.01 µM
• CO[C@H]1Cc2ccc(Cn3cc(CN)cn3)c(C(=O)O)c2OB1O = 1 to 100 µM
• CC(C)(N)C#Cc1cnn(Cc2ccc3c(c2C(=O)O)OB(O)CC3)c1 = < 0.01 µM
• NCCNCc1cnn(Cc2ccc3c(c2C(=O)O)OB(O)CC3)c1 = 0.01 to 1 µM
• NS(=O)(=O)NCc1cnn(Cc2ccc3c(c2C(=O)O)OB(O)CC3)c1 = 0.01 to 1 µM
• O=C(O)c1c(Cn2ncc3c2CNC3)ccc2c1OB(O)CC2 = 0.01 to 1 µM
• N#CCCCc1cn(Cc2ccc3c(c2C(=O)O)OB(O)CC3)nn1 = 0.01 to 1 µM
• CN1Cc2cn(Cc3ccc4c(c3C(=O)O)OB(O)CC4)nc2C1 = 0.01 to 1 µM
• O=C(O)c1c(Cn2ccnn2)ccc2c1OB(O)C1CC21 (stereo not shown) = 0.01 to 1 µM
• CC(N)c1cnn(Cc2ccc3c(c2C(=O)O)OB(O)CC3)c1 (stereo not shown) = 0.01 to 1 µM
• NC(=O)[C@@H]1CC[C@@H]2CN1C(=O)N2OS(=O)(=O)O [Avibactam, reference compound] = < 0.01 µM
• NCCc1cn(Cc2ccc3c(c2C(=O)O)OB(O)CC3)nn1 = 0.01 to 1 µM
• N=C(N)NCCc1cnn(Cc2ccc3c(c2C(=O)O)OB(O)CC3)c1 = 0.01 to 1 µM
• NCCN[C@H]1CC[C@H](CC(=O)N[C@H]2Cc3cccc(C(=O)O)c3OB2O)CC1 [Taniborbactam, reference compound] = 0.01 to 1 µM

====

Measured On: CTX-M-14 (Escherichia coli, UniProt Q9L5C7)
Sequence (Q9L5C7 entry or part of it): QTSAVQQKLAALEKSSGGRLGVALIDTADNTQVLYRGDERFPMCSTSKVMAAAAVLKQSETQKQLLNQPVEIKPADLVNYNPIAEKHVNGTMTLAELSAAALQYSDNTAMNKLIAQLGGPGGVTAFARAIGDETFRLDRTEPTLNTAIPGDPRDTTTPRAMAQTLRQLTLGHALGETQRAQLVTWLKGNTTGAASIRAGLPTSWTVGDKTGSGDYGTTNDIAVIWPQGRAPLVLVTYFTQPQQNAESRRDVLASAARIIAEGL
Assay Protocol: Inhibitory activity on SBL, fluorescent substrate FC-5
Type: biochemical
Run Parameters: unit inferred; read-out: CTX-M-14, number in parentheses under the class symbol
Property Measured: IC50 (nM)

• O=C(O)c1c(CNc2nncs2)ccc2c1OB(O)CC2 [Comparative example 1 compound 64, reference compound] = 63

====

The next entries give measured IC50 for TEM-1 (Escherichia coli, UniProt P62593).
Property Measured: IC50

• O=C(O)c1c(Cn2nccn2)ccc2c1OB(O)C1CC21 (stereo not shown) = 10 to 1000 nM
• NC(=O)c1cnn(Cc2ccc3c(c2C(=O)O)OB(O)CC3)c1 = < 10 nM
• O=C(O)c1c(Cn2cc([N+](=O)[O-])cn2)ccc2c1OB(O)CC2 = 10 to 1000 nM
• O=C(O)c1c(Cn2cc3c(n2)CNC3)ccc2c1OB(O)CC2 [Compound 56] = < 10 nM
• O=C(O)c1c(Cn2cncn2)ccc2c1OB(O)CC2 = 10 to 1000 nM
• NCc1ccn(Cc2ccc3c(c2C(=O)O)OB(O)CC3)n1 = < 10 nM
• O=C(O)c1c(Cn2cc(F)cn2)ccc2c1OB(O)CC2 = 10 to 1000 nM
• N=C(N)NCCCc1cn(Cc2ccc3c(c2C(=O)O)OB(O)CC3)nn1 = 10 to 1000 nM
• O=C(O)c1c(Cn2cc(C3CNC3)nn2)ccc2c1OB(O)CC2 = 10 to 1000 nM
• NCCNCc1cnn(Cc2ccc3c(c2C(=O)O)OB(O)CC3)c1 = < 10 nM
• N#Cc1ccn(Cc2ccc3c(c2C(=O)O)OB(O)CC3)n1 = < 10 nM
• NCc1cnn(Cc2ccc3c(c2C(=O)O)OB(O)[C@@H](Sc2nncs2)C3)c1 = 1000 to 100000 nM
• O=C(O)c1c(Cn2cc3c(n2)CNC3)ccc2c1OB(O)[C@H]1C[C@@H]21 = 1000 to 100000 nM
• N=C(N)N1CC(c2cn(Cc3ccc4c(c3C(=O)O)OB(O)CC4)nn2)C1 = 10 to 1000 nM
• Cc1nccn1Cc1ccc2c(c1C(=O)O)OB(O)CC2 = 10 to 1000 nM
• N=C(N)NCCc1cn(Cc2ccc3c(c2C(=O)O)OB(O)CC3)nn1 = 10 to 1000 nM
• Nc1ncc(-c2cn(Cc3ccc4c(c3C(=O)O)OB(O)CC4)nn2)cn1 = 10 to 1000 nM
• O=C(O)c1c(Cn2ncc3c2CNC3)ccc2c1OB(O)CC2 = 10 to 1000 nM
• NCc1ccc(-c2cn(Cc3ccc4c(c3C(=O)O)OB(O)CC4)nn2)cc1 = 10 to 1000 nM
